Tested on: A-375
Test: Cell viability (CellTiter-Glo) of A-375
Assay type: cell-based
Details: Homo sapiens; A-375, melanoma
metric name: IC50 (nM)
One number for each entry, in nM.

Task: Fill in: IC50 on A-375, entry O=C(C[n+]1ccc(NCc2ccccc2)cc1)c1cccc([N+](=O)[O-])c1
Result: 1300

* * *

Assay: Stability in human liver microsome
Type: in vitro ADME
Conditions: liver microsomes, pH 7.4, 1.5 μM drug solution, NADPH, 37° C., read-out: Human T1/2
metric name: half-life at 1 µM (min)
Numbers only, in min.

O=C(C[n+]1ccc(NCc2ccccc2)cc1)c1ccccc1 [AB24807A]	199
O=C1c2cc(OC(F)(F)F)ccc2CCC1[n+]1ccc2c(ccn2Cc2ccccc2)c1 (stereo not drawn) [AB27126]	1250
O=C1c2cc(OC(F)(F)F)ccc2CCC1[n+]1ccc(NCc2ccccc2)cc1 (stereo not drawn) [AB27156]	1050
O=C1c2cc(Cl)ccc2CCC1[n+]1ccc2c(ccn2Cc2ccccc2)c1 (stereo not drawn) [AB27124]	106
O=C(C[n+]1ccc(NCc2ccccc2)cc1)c1ccc(Br)cc1 [AB24808A]	341
O=C(C[n+]1ccc(NCc2ccccc2)nc1)c1ccc(-c2ccccc2)cc1 [AB24964]	216
O=C(C[n+]1ccc(NCc2ccccc2)cc1)c1ccc(C(F)(F)F)cc1 [AB24809A]	398
O=C(C[n+]1ccc2c(c1)CCCC(c1ccccc1)N2)c1ccc(Cl)cc1 (stereo not drawn) [AB24839]	669

With those in mind, consider the next compound.
Task: Provide one value: measured half-life at 1 µM of O=C1c2cc(Cl)ccc2CCC1[n+]1ccc2c(c1)CCC(c1ccccc1)N2 (stereo not drawn) [AB27130]
Result: 358
